Molecular target: human TRPV4 (Homo sapiens, UniProt Q9HBA0)
Construct: host or cells: tetracycline-inducible Flp-In T-REx 293 cells
Sequence (Q9HBA0 whole entry): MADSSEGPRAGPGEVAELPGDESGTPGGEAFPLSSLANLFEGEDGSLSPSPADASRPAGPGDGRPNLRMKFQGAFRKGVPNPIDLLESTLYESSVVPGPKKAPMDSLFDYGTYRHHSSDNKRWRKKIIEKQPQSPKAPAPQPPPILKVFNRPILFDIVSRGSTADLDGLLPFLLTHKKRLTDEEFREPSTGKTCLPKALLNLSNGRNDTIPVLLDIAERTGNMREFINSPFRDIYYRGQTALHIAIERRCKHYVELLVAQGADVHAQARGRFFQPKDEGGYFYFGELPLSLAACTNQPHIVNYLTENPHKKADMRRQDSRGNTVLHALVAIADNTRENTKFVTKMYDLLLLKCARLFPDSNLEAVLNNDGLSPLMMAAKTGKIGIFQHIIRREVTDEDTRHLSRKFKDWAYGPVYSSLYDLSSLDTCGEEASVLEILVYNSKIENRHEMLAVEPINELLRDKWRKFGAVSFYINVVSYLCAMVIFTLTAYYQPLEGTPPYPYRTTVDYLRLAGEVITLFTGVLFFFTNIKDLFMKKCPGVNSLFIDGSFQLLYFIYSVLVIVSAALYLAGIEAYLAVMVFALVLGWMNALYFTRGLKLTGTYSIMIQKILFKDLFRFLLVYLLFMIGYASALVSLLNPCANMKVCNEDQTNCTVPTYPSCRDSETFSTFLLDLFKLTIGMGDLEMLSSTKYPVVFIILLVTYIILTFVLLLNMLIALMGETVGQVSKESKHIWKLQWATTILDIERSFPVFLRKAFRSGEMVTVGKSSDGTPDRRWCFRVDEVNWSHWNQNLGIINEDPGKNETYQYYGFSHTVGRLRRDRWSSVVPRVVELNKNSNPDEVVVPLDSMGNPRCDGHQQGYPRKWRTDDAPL
Assay: Hypotonicity-induced Ca2+ influx (Fluo-4, FDSS)
Type: cell-based
Details: Flp-In T-REx 293 cells stably expressing human TRPV4, compounds listed by potency bin (<10 nM Tables 96-1/96-2, <3 nM Table 97)
pIC50: −log10 of the molar value.
quantity name: pIC50

Completed entries (count: 3):
>>> print(df.to_string())
                                   molecule  quantity_name  result
0  CC1CCN(c2ccc(-c3cccc(C4(c5nc6c(c(=O)[nH]5)CN(C(=O)[C@H](O)c5cccc(C(F)(F)F)c5)CCC6)CC4)c3)cn2)CC1          pIC50  > 8.52
1  O=C(C(O)c1cccc(-c2cc(C(F)(F)F)cc(C(F)(F)F)c2)c1)N1CCCc2nc(C3(c4ccccc4)CC3)[nH]c(=O)c2C1 (stereo not shown)          pIC50  > 8.00
2  O=C(C(O)c1cccc(-c2cccc(C(F)(F)F)c2)c1)N1CCCc2nc(C3(c4cncc(-c5ccccc5)c4)CC3)[nH]c(=O)c2C1 (stereo not shown)          pIC50  > 8.52

Reported pIC50 (human TRPV4 (Homo sapiens, UniProt Q9HBA0)) for entry Cc1cc(-c2cccc([C@@H](O)C(=O)N3CCc4nc(C5(c6ccccc6)CC5)[nH]c(=O)c4C3)c2)ccc1Cl is > 8.00

// assay human TRPV4 (Homo sapiens, UniProt Q9HBA0), entry O=C(C(O)c1cccc(-c2cccc(Cl)c2)c1)N1CCCc2nc(C3(c4ccccc4)CC3)[nH]c(=O)c2C1 (stereo not shown) , pIC50 value = > 8.00

Simply: COc1cc(-c2cccc(C3(c4nc5c(c(=O)[nH]4)CN(C(=O)[C@H](O)c4cccc(Cl)c4)CCC5)CC3)c2)ccn1 , human TRPV4 (Homo sapiens, UniProt Q9HBA0), pIC50 = > 8.52

Known value: human TRPV4 (Homo sapiens, UniProt Q9HBA0) pIC50 of the molecule O=C([C@H](O)c1cccc(C(F)(F)F)c1)N1CCCc2nc(C3(c4cccc(-c5ccc(F)cc5)c4)CC3)[nH]c(=O)c2C1 equals > 8.00

Entry Cn1cc(-c2cccc(C3(c4nc5c(c(=O)[nH]4)CN(C(=O)[C@H](O)c4cccc(C(F)(F)F)c4)CCC5)CC3)c2)cn1 under human TRPV4 (Homo sapiens, UniProt Q9HBA0) had pIC50 of > 8.00

// pIC50 (human TRPV4 (Homo sapiens, UniProt Q9HBA0)) for CC(C)(C)c1cccc(C(O)C(=O)N2CCCc3nc(C4(c5cccs5)CC4)[nH]c(=O)c3C2)c1 (stereo not shown) = > 8.00

Form field, pIC50 with human TRPV4 (Homo sapiens, UniProt Q9HBA0), item O=C(C(O)c1cccc(SC(F)(F)F)c1)N1CCCc2nc(C3(c4ccccc4)CC3)[nH]c(=O)c2C1 (stereo not shown) : > 8.00

Tested on human TRPV4 (Homo sapiens, UniProt Q9HBA0), the item O=C(N1CCCc2nc(C3(c4cccs4)CC3)[nH]c(=O)c2C1)C(F)(F)c1cccc(C(F)(F)F)c1 showed pIC50 equal to > 8.52

// assay human TRPV4 (Homo sapiens, UniProt Q9HBA0), entry Cn1ncc2c(-c3cccc(C4(c5nc6c(c(=O)[nH]5)CN(C(=O)[C@H](O)c5cccc(Cl)c5)CCC6)CC4)c3)cccc21 , pIC50 value = > 8.52
